Numbers sourced from ChEMBL document CHEMBL4219203.

# System: Hepatitis B virus
# EXPERIMENT: Antiviral activity against Hepatitis B virus infected in human HepG2.215 cells assessed as inhibition of HBeAg secretion after 3 days by ELISA
# Type: functional, organism-based
# SETUP CONDITIONS: HepG2.2.15, 72 h
Entries whose IC50 is below 80 µM take condition met; entries at or above 80 µM take condition not met.

Previously resolved entries follow.
C[C@H]1[C@H](C)CC[C@]2(C(=O)O)CC[C@]3(C)C(=CC[C@@H]4[C@@](C)(CCC(=O)O)[C@H](C(C)(C)O)CC[C@]43C)[C@H]12    condition not met
CC1(C)CC[C@]2(C(=O)O)CC[C@]3(C)C(Br)(CC[C@@H]4[C@@]5(C)CCC(=O)C(C)(C)[C@@H]5CC[C@]43C)[C@@H]2C1 (stereo partly specified)    condition not met
CC1(C)CC[C@@]23CC[C@]4(C)[C@@](OC2=O)([C@@H]3C1)[C@@H](O)C[C@@H]1[C@@]2(C)CCC(=O)OC(C)(C)[C@@H]2CC[C@]14C    condition not met

Lab note: IC50 threshold 80 µM. Does this compound come in strictly under it? `CC1(C)CC[C@]2(C(=O)O)CC[C@]3(C)C(=CC(=O)[C@@H]4[C@@]5(C)CCC(=O)OC(C)(C)[C@@H]5CC[C@]43C)[C@@H]2C1` condition met

Lab note: IC50 threshold 80 µM. Does this compound come in strictly under it? `C[C@H]1OC(=O)CC[C@@H]2[C@]1(C)CC[C@H]1[C@@]2(C)CC[C@@]2(C)[C@@H]3CC(C)(C)CC[C@]3(C)CC[C@]12C` condition not met

----------
# EXPERIMENT: Selectivity index, ratio of CC50 for human HepG2.215 cells to IC50 for Hepatitis B virus infected in human HepG2.215 cells assessed as reduction in covalently closed circular DNA level
# Format: toxicity, cell-based
# SETUP CONDITIONS: HepG2.2.15 cells (Hepatitis B virus infected), read-out: Ratio CC50/IC50
EXPERIMENTAL READOUT: selectivity ratio
Answer using only a numeral; do not append any unit.

CC1(C)CC[C@]2(C(=O)O)CC[C@]3(C)C(=CC[C@@H]4[C@@]5(C)CCC(=O)OC(C)(C)[C@@H]5CC[C@]43C)[C@@H]2C1    14.5
CC1(C)CC[C@]2(C(=O)O)CC[C@]3(C)C(=CC(=O)[C@@H]4[C@@]5(C)CCC(=O)OC(C)(C)[C@@H]5CC[C@]43C)[C@@H]2C1    17.4

Now turn to the next molecule.
Requested read-out: selectivity ratio. Entry: `CC(C)(O)[C@@H]1CC[C@]2(C)[C@H](C(=O)C=C3[C@@H]4C[C@@](C)(C(=O)O)CC[C@]4(C)CC[C@]32C)[C@@]1(C)CCC(=O)O` 166

----------
Reported IC50 values for the following molecules.
# Test system: Hepatitis B virus
# EXPERIMENT: Antiviral activity against Hepatitis B virus infected in human HepG2.215 cells assessed as inhibition of HBeAg secretion after 3 days by ELISA
# Format: functional, organism-based
# SETUP CONDITIONS: HepG2.2.15, 72 h

CC1(C)CC[C@]2(C(=O)O)CC[C@]3(C)C(Br)(CC[C@@H]4[C@@]5(C)CCC(=O)OC(C)(C)[C@@H]5CC[C@]43C)[C@@H]2C1 (stereo not given in full)    92.3 µM
CC(C)(O)[C@@H]1CC[C@]2(C)[C@H](C(=O)C=C3[C@@H]4C[C@@](C)(C(=O)O)CC[C@]4(C)CC[C@]32C)[C@@]1(C)CCC(=O)O    257 µM
C[C@H]1[C@H](C)CC[C@]2(C(=O)O)CC[C@]3(C)C(=CC[C@@H]4[C@@]5(C)CCC(=O)OC(C)(C)[C@@H]5CC[C@]43C)[C@H]12    176 µM

Requested read-out: IC50. Entry: C[C@H]1C(=O)CC[C@@H]2[C@]1(C)CC[C@H]1[C@@]2(C)CC[C@@]2(C)[C@@H]3CC(C)(C)CC[C@]3(C)CC[C@]12C [FRIEDELINE] 1250 µM

Requested read-out: IC50. Entry: `Nc1ccn([C@H]2CS[C@@H](CO)O2)c(=O)n1` 1440 µM

----------
Reported pIC50 values for the following compounds.
# System: Hepatitis B virus
# EXPERIMENT: Antiviral activity against Hepatitis B virus infected in human HepG2.215 cells assessed as inhibition of HBeAg secretion after 3 days by ELISA
# Format: functional, organism-based
# SETUP CONDITIONS: HepG2.2.15, 72 h
The quantity pIC50 is defined as the negative base-10 logarithm of the molar concentration.

Worked examples follow.
CC1(C)CC[C@]2(C(=O)O)CC[C@]3(C)C(=CC[C@@H]4[C@@]5(C)CC[C@H](O)C(C)(C)[C@@H]5CC[C@]43C)[C@@H]2C1 [OLEANOLIC_ACID]    3.09
CC1(C)[C@@H](O)CC[C@]2(C)[C@H]3C(=O)C=C4[C@@H]5C[C@@](C)(C(=O)O)CC[C@]5(C)CC[C@@]4(C)[C@]3(C)CC[C@@H]12 [ENOXOLONE]    3.09
C[C@H]1[C@H](C)CC[C@]2(C(=O)O)CC[C@]3(C)C(=CC[C@@H]4[C@@]5(C)CC[C@H](O)C(C)(C)[C@@H]5CC[C@]43C)[C@H]12 [URSOLIC ACID]    3.05
CC1(C)CC[C@@]23CC[C@]4(C)[C@@](OC2=O)([C@@H]3C1)[C@@H](O)C[C@@H]1[C@@](C)(CCC(=O)O)[C@H](C(C)(C)O)CC[C@]14C    3.95

Now turn to the next compound.
Requested read-out: pIC50. Entry: `CC1(C)CC[C@]2(C(=O)O)CC[C@]3(C)C(=CC[C@@H]4[C@@]5(C)CCC(=O)OC(C)(C)[C@@H]5CC[C@]43C)[C@@H]2C1` 6.07

----------
Reported selectivity ratio values for the following molecules.
# EXPERIMENT: Selectivity index, ratio of CC50 for human HepG2.215 cells to IC50 for Hepatitis B virus infected in human HepG2.215 cells assessed as inhibition of HBsAg secretion
# Assay type: toxicity, cell-based
# SETUP CONDITIONS: HepG2.2.15 cells (Hepatitis B virus infected), read-out: Ratio CC50/IC50
Answer using only a numeral; do not append any unit.

Worked examples follow.
C[C@H]1[C@H](C)CC[C@]2(C(=O)O)CC[C@]3(C)C(=CC[C@@H]4[C@@](C)(CCC(=O)O)[C@H](C(C)(C)O)CC[C@]43C)[C@H]12    1.13
CC1(C)CC[C@]2(C(=O)O)CC[C@]3(C)C(Br)(CC[C@@H]4[C@@]5(C)CCC(=O)OC(C)(C)[C@@H]5CC[C@]43C)[C@@H]2C1 (stereo partly specified)    1.59
C[C@H]1[C@H](C)CC[C@]2(C(=O)O)CC[C@]3(C)C(=CC[C@@H]4[C@@]5(C)CC[C@H](O)C(C)(C)[C@@H]5CC[C@]43C)[C@H]12    1.13
CC1(C)CC[C@]2(C(=O)O)CC[C@]3(C)C(=CC[C@@H]4[C@@]5(C)CCC(=O)OC(C)(C)[C@@H]5CC[C@]43C)[C@@H]2C1    1.32
CC(C)(O)[C@@H]1CC[C@]2(C)[C@H](C(=O)C=C3[C@@H]4C[C@@](C)(C(=O)O)CC[C@]4(C)CC[C@]32C)[C@@]1(C)CCC(=O)O    7.87

Requested read-out: selectivity ratio. Entry: `CC1(C)OC(=O)CC[C@]2(C)[C@H]3C(=O)C=C4[C@@H]5C[C@@](C)(C(=O)O)CC[C@]5(C)CC[C@@]4(C)[C@]3(C)CC[C@@H]12` 3.2

----------
# EXPERIMENT: Cytotoxicity against human HepG2.215 cells assessed as reduction in cell viability after 3 days by MTT assay
# Type: cell-based, HepG2 2.2.15
# SETUP CONDITIONS: HepG2.2.15 cells
Label scheme for CC50 at 72 h: low (below 500 µM), medium (500 µM to below 900 µM), high (900 µM or more)

Previously resolved entries follow.
C[C@H]1[C@H](C)CC[C@]2(C(=O)O)CC[C@]3(C)C(=CC[C@@H]4[C@@]5(C)CC[C@H](O)C(C)(C)[C@@H]5CC[C@]43C)[C@H]12 [URSOLIC ACID]    high
CC1(C)OC(=O)CC[C@]2(C)[C@H]3C(=O)C=C4[C@@H]5C[C@@](C)(C(=O)O)CC[C@]5(C)CC[C@@]4(C)[C@]3(C)CC[C@@H]12    medium
CC1(C)CC[C@@]23CC[C@]4(C)[C@@](OC2=O)([C@@H]3C1)[C@@H](O)C[C@@H]1[C@@](C)(CCC(=O)O)[C@H](C(C)(C)O)CC[C@]14C    low

Please report the category associated with `CC(C)(O)[C@@H]1CC[C@]2(C)[C@H](C(=O)C=C3[C@@H]4C[C@@](C)(C(=O)O)CC[C@]4(C)CC[C@]32C)[C@@]1(C)CCC(=O)O` , nothing else. high

Please report the category associated with `C[C@H]1[C@H](C)CC[C@]2(C(=O)O)CC[C@]3(C)C(=CC[C@@H]4[C@@]5(C)CCC(=O)OC(C)(C)[C@@H]5CC[C@]43C)[C@H]12` , nothing else. low

Please report the category associated with `CC1(C)CC[C@]2(C(=O)O)CC[C@]3(C)C(=CC(=O)[C@@H]4[C@@]5(C)CCC(=O)OC(C)(C)[C@@H]5CC[C@]43C)[C@@H]2C1` , nothing else. medium

Please report the category associated with C[C@H]1C(=O)CC[C@@H]2[C@]1(C)CC[C@H]1[C@@]2(C)CC[C@@]2(C)[C@@H]3CC(C)(C)CC[C@]3(C)CC[C@]12C [FRIEDELINE] , nothing else. high

Please report the category associated with CC1(C)CC[C@]2(C(=O)O)CC[C@]3(C)C(Br)(CC[C@@H]4[C@@]5(C)CCC(=O)C(C)(C)[C@@H]5CC[C@]43C)[C@@H]2C1 (some centres not stated) , nothing else. low

Please report the category associated with `CC1(C)CC[C@]2(C(=O)O)CC[C@]3(C)C(=CC[C@@H]4[C@@]5(C)CCC(=O)OC(C)(C)[C@@H]5CC[C@]43C)[C@@H]2C1` , nothing else. low

Please report the category associated with CC1(C)[C@@H](O)CC[C@]2(C)[C@H]3C(=O)C=C4[C@@H]5C[C@@](C)(C(=O)O)CC[C@]5(C)CC[C@@]4(C)[C@]3(C)CC[C@@H]12 [ENOXOLONE] , nothing else. medium
